// data source = patent US9127001B2

target_or_system: Human TASK-1 channels (Homo sapiens (Human), UniProt O14649)
Sequence (O14649 whole entry): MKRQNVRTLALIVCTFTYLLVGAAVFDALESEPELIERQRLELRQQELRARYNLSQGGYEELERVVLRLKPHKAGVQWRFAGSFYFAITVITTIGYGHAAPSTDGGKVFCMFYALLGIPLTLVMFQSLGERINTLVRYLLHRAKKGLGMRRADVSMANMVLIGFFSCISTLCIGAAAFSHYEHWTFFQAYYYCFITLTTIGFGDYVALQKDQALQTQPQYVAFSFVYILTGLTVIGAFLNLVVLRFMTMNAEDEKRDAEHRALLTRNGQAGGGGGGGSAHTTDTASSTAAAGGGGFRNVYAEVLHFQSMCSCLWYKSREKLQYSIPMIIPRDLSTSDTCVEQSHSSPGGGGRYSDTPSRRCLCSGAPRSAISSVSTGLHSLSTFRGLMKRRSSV
assay_remarks: Activity on the TASK-1 channel in Xenopus oocytes (two-microelectrode voltage clamp)
experimental_context: human TASK-1 expressed in Xenopus oocytes, currents during pulses to 40 mV, room temperature
endpoint_name: IC50 (nM)
Numeric only. Scale: nM

INPUT: Lab note: need IC50 with Human TASK-1 channels (Homo sapiens (Human), UniProt O14649) for entry CNC(=O)N1CCc2c(c(-c3cccc(C#N)c3)nn2Cc2ccc(F)cc2F)C1 [Example 12a] , please look it up.
OUTPUT: 380

INPUT: Give Human TASK-1 channels (Homo sapiens (Human), UniProt O14649) IC50 for CC(=O)N1CCc2c(c(-c3cccc(C#N)c3)nn2Cc2ccc(F)cc2F)C1
OUTPUT: 95

----------
target_or_system: Human TASK-1 channels (Homo sapiens (Human), UniProt O14649)
assay_remarks: Activity on the TASK-1 channel in Xenopus oocytes (two-microelectrode voltage clamp)
experimental_context: human TASK-1 expressed in Xenopus oocytes, currents during pulses to 40 mV, room temperature
Procedure: Human TASK-1 channels were expressed in Xenopus oocytes. For this purpose, oocytes were isolated from Xenopus laevis and defoliculated. Subsequently, TASK-1-encoding RNA synthesized in vitro was injected into oocytes. […] Data were acquired and analyzed using a TEC-10cx amplifier (NPI Electronic, Tamm, Germany) connected to an ITC-16 interface (Instrutech Corp., Long Island, USA) and Pulse software (HEKA Elektronik, Lambrecht, Germany). […]
# IC50 per record follows
All answers are understood in nM, so give the number only.

Look over these answered cases.
- C[C@H](O)C(=O)N1CCc2c(c(-c3cccc(C#N)c3)nn2Cc2ccc(F)cc2F)C1: 756
- CC(=O)N1CCc2c(c(-c3ccc(F)cc3)nn2Cc2ccc(Cl)c(F)c2)C1: 398

Consider now this further compound.
INPUT: Endpoint output: IC50 of COc1cc(-c2nn(Cc3ccc(F)cc3F)c3c2CN(C(C)=O)CC3)ccc1F . Value?
OUTPUT: 975

----------
target_or_system: UniProtKB O14649
assay_remarks: Activity on the TASK-1 channel in Xenopus oocytes (two-microelectrode voltage clamp)
experimental_context: human TASK-1 expressed in Xenopus oocytes, currents during pulses to 40 mV, room temperature
endpoint_name: pIC50
Remember the convention: pIC50 equals -log10 of concentration in molar.

Sample records with pIC50:
* CC(=O)N1CCc2c(c(-c3ccc(F)cc3)nn2Cc2cccc(C(F)(F)F)c2)C1 [Example 6av] | 6.04
* CC(=O)N1CCc2c(c(-c3cccc(C#N)c3)nn2C(C)c2ccc(F)cc2)C1 (centres unmarked) [Example 6an] | 6.73
* CC(=O)N1CCc2c(c(-c3cccc(C(F)(F)F)n3)nn2Cc2ccc(F)cc2)C1 [Example 6g] | 7.00
* O=C(c1ccc(F)cc1)N1CCc2c(c(-c3ccc(F)cc3)nn2Cc2ccccc2)C1 [Example 8f] | 5.89
* CC(=O)N1CCc2c(c(-c3cc(C(F)(F)F)ccn3)nn2Cc2ccc(F)cc2F)C1 [Example 6h] | 6.72

We next turn to a different compound, shown below.
INPUT: Give pIC50 (UniProtKB O14649) of the following compound: CC(c1ccc(F)cc1)n1nc(-c2ccc(F)cc2)c2c1CCN(C(=O)N1CCOCC1)C2 (single isomer, unassigned) [Example 12b]
OUTPUT: 6.29
